Sourced from ChEMBL document CHEMBL1153451

- System tested: Aminopeptidase N (Sus scrofa)
- Sequence (P15145 whole entry): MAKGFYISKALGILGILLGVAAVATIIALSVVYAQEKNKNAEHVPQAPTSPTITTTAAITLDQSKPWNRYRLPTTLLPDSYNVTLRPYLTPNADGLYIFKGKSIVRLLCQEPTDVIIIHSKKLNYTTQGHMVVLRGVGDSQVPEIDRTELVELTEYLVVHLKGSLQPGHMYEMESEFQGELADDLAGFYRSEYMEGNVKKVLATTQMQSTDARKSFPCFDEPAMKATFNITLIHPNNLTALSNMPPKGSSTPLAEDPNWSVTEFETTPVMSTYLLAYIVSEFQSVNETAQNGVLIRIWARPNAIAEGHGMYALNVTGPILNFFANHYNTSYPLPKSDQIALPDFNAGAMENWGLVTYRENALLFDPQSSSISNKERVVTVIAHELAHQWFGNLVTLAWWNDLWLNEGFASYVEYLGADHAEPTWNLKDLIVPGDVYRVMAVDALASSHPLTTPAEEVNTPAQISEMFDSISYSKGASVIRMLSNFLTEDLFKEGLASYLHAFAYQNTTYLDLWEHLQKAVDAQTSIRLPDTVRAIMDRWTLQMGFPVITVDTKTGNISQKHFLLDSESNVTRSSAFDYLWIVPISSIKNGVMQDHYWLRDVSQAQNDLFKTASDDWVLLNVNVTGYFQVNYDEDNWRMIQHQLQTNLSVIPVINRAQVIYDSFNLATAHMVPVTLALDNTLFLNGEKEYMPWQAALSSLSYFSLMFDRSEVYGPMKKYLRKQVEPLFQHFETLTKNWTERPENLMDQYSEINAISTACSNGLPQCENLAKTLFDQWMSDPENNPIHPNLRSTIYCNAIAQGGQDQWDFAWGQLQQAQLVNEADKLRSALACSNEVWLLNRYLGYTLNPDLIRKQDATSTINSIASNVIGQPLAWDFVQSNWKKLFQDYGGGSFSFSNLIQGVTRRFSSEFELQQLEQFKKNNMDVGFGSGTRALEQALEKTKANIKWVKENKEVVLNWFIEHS
// classify: if (IC50 < 100 µM) Yes else No

input: # check: IC50 < 100 µM for COc1cc(C(=O)N[C@H](CCC(=O)O)C(=O)Nc2ccc(F)cc2)cc(OC)c1OC
output: Yes

input: Next compound: COc1cc(C(=O)N[C@H](CCC(=O)O)C(=O)NCc2ccc(Br)cc2F)cc(OC)c1OC
output: Yes

input: Next compound: COc1cc(C(=O)N[C@H](CCC(=O)O)C(=O)NCc2ccc(Cl)cc2F)cc(OC)c1OC
output: Yes

input: Next compound: COc1cc(C(=O)NC2CCC(=O)N(c3ccccc3N)C2=O)cc(OC)c1OC (stereo not given)
output: No

input: Next compound: COc1cc(C(=O)N[C@H](CCC(=O)O)C(=O)Nc2nccs2)cc(OC)c1OC
output: No

---

Here, each record is paired with measured log10 of IC50 data.
- System tested: 72 kDa type IV collagenase (Homo sapiens, UniProt P08253)
- Sequence (P08253 whole entry): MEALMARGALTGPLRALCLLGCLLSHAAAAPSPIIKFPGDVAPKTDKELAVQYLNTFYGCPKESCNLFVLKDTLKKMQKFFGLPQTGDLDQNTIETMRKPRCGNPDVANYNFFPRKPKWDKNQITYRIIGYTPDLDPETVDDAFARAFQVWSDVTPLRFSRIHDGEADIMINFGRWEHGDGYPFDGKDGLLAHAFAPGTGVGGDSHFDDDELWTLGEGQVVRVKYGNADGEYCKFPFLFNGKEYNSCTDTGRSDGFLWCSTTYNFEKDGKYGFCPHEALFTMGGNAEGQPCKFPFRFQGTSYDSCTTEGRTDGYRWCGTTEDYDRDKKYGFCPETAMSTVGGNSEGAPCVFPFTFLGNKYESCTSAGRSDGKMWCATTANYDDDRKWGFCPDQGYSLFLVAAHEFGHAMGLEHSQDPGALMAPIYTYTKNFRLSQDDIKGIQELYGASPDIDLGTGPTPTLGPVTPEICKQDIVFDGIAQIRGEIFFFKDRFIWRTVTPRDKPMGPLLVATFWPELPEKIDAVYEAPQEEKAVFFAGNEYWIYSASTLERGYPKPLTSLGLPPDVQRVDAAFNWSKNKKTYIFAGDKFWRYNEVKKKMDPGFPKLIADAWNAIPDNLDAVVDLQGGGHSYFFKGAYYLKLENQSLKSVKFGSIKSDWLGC
Recall that a logarithmic scale is used here: each number is log10 of IC50 in µM.

Sample records with log10 of IC50:
- Compound smiles: "COc1cc(C(=O)N[C@H](CCC(=O)O)C(=O)Nc2ccc(F)c(Cl)c2)cc(OC)c1OC"
  log10 of IC50: 2.03
- Compound smiles: "COc1cc(C(=O)N[C@H](CCC(=O)O)C(=O)Nc2ccc(F)cc2)cc(OC)c1OC"
  log10 of IC50: 1.42
- Compound smiles: "COc1cc(C(=O)N[C@H](CCC(=O)O)C(=O)NCc2cccc(Br)c2)cc(OC)c1OC"
  log10 of IC50: 2.46
- Compound smiles: "COc1cc(C(=O)N[C@H](CCC(=O)O)C(=O)Nc2ccc(F)cc2F)cc(OC)c1OC"
  log10 of IC50: 2.04
- Compound smiles: "COc1cc(C(=O)N[C@H](CCC(=O)O)C(=O)NCCCl)cc(OC)c1OC"
  log10 of IC50: 2.70
- Compound smiles: "COc1cc(C(=O)N[C@H](CCC(=O)O)C(=O)NNC(=O)c2cccnc2)cc(OC)c1OC"
  log10 of IC50: 2.06
- Compound smiles: "COc1cc(C(=O)N[C@H](CCC(=O)O)C(=O)Nc2ccc(C(=O)O)c(O)c2)cc(OC)c1OC"
  log10 of IC50: 1.94
- Compound smiles: "COc1cc(C(=O)N[C@H](CCC(=O)O)C(=O)Nc2cc(Cl)ccc2Cl)cc(OC)c1OC"
  log10 of IC50: 2.09

Now look at this one.
input: Need log10 of IC50, item COc1cc(C(=O)N[C@H](CCC(=O)O)C(=O)NNC(=O)c2nccs2)cc(OC)c1OC
output: 2.23
